Tested on: RIVA
Assay: growth inhibition by drug plus 177Lu-lilotomab satetraxetan (1 - RLU/untreated control) (fraction); higher = stronger inhibition
Conditions: 100 nM; time (day): 6; 177Lu-lilotomab satetraxetan 0.5 ug/ml
Counter-ions that a name gives are not always drawn.
The threshold is inclusive: growth inhibition by drug plus 177Lu-lilotomab satetraxetan of exactly 0.6 counts as fulfilled; values below receive not fulfilled.

>  <Compound>
CC[C@H]1OC(=O)[C@H](C)[C@@H](O[C@H]2C[C@@](C)(OC)[C@@H](O)[C@H](C)O2)[C@H](C)[C@@H](O[C@@H]2O[C@H](C)C[C@H](N(C)C)[C@H]2O)[C@](C)(O)C[C@@H](C)CN(C)[C@H](C)[C@@H](O)[C@]1(C)O [Azithromycin (Zithromax)]

>  <Assigned label>
not fulfilled

$$$$
>  <Compound>
O=C(NOC[C@H](O)CO)c1ccc(F)c(F)c1Nc1ccc(I)cc1F

>  <Assigned label>
not fulfilled

$$$$
>  <Compound>
O=C(NC1CCNCC1)c1n[nH]cc1NC(=O)c1c(Cl)cccc1Cl

>  <Assigned label>
not fulfilled

$$$$
>  <Compound>
Cc1cc(Nc2cc(N3CCN(C)CC3)nc(/C=C/c3ccccc3)n2)n[nH]1

>  <Assigned label>
not fulfilled

$$$$
>  <Compound>
CCc1c2c(nc3ccc(OC(=O)N4CCC(N5CCCCC5)CC4)cc13)-c1cc3c(c(=O)n1C2)COC(=O)[C@]3(O)CC [Irinotecan HCl Trihydrate (Campto)]

>  <Assigned label>
fulfilled

$$$$
>  <Compound>
CC(C)C(=O)Nc1ccc([N+](=O)[O-])c(C(F)(F)F)c1 [Flutamide (Eulexin)]

>  <Assigned label>
fulfilled

$$$$

Has CN(C)Cc1ccc(-c2nc3cccc4c3n2CCNC4=O)cc1 a recorded growth inhibition by drug plus 177Lu-lilotomab satetraxetan greater than or equal to 0.6?
fulfilled

Has Cc1ccc(S(=O)(=O)C=CC#N)cc1 a recorded growth inhibition by drug plus 177Lu-lilotomab satetraxetan greater than or equal to 0.6?
not fulfilled

Has COc1ccc(C2CC(c3ccccc3)=NN2c2ccc(S(N)(=O)=O)cc2)cc1 (centres undefined) a recorded growth inhibition by drug plus 177Lu-lilotomab satetraxetan greater than or equal to 0.6?
not fulfilled

Has O=C(NCCCNc1nc(Nc2cccc(NC(=O)N3CCCC3)c2)ncc1I)c1cccs1 a recorded growth inhibition by drug plus 177Lu-lilotomab satetraxetan greater than or equal to 0.6?
fulfilled

Has CC1(C)CNc2cc(NC(=O)c3cccnc3NCc3ccncc3)ccc21 [Motesanib Diphosphate] a recorded growth inhibition by drug plus 177Lu-lilotomab satetraxetan greater than or equal to 0.6?
not fulfilled

---

Give measured growth inhibition by drug plus 177Lu-lilotomab satetraxetan for each item. Keep answers brief.
System: RIVA
Test: growth inhibition by drug plus 177Lu-lilotomab satetraxetan (1 - RLU/untreated control) (fraction); higher = stronger inhibition
Settings: 10 nM; time (day): 3; 177Lu-lilotomab satetraxetan 0.5 ug/ml

>  <Molecule>
O=c1[nH]nc(Sc2ncc([N+](=O)[O-])s2)n1-c1ccc2c(c1)OCCO2

>  <Recorded measurement>
0.41

$$$$
>  <Molecule>
O=C1C(Cl)=C(NCCN2CCOCC2)C(=O)c2ncccc21

>  <Recorded measurement>
0.584

$$$$
>  <Molecule>
CCCS(=O)(=O)Nc1ccc(F)c(C(=O)c2c[nH]c3ncc(-c4ccc(Cl)cc4)cc23)c1F

>  <Recorded measurement>
0.42

$$$$
>  <Molecule>
Nc1ccc(C(=O)Nc2cccc(-c3nc(N4CCOCC4)c4oc5ncccc5c4n3)c2)cn1

>  <Recorded measurement>
0.467

$$$$
>  <Molecule>
NC(=O)c1ccc2nc(-c3ccc(Oc4ccc(Cl)cc4)cc3)[nH]c2c1

>  <Recorded measurement>
0.4

$$$$

Report growth inhibition by drug plus 177Lu-lilotomab satetraxetan for every entry below.
1. O=c1cc(N2CCOCC2)oc2c(-c3cccc4c3sc3ccccc34)cccc12
2. O=C(O)C(Cc1c[nH]c2ccccc12)N1C(=O)c2ccccc2C1=O (stereo not given)
3. COc1ccc2c(c1)CCC1C2CCC2(C)C(NCCCCCCN3C(=O)C=CC3=O)CCC12 (stereo not given)

1. 0.597
2. 0.311
3. 0.506

Report growth inhibition by drug plus 177Lu-lilotomab satetraxetan for every entry below.
1. Cc1cc(Nc2cc(N3CCN(C)CC3)nc(/C=C/c3ccccc3)n2)n[nH]1
2. O=C(NC1CCNCC1)c1n[nH]cc1NC(=O)c1c(Cl)cccc1Cl
3. CCOc1ccn(-c2ccc(F)cc2)c(=O)c1C(=O)Nc1ccc(Oc2ccnc(N)c2Cl)c(F)c1
4. Cc1cnc(-c2cnc(NCCNc3ccc(C#N)cn3)nc2-c2ccc(Cl)cc2Cl)[nH]1
5. Nc1ncn([C@H]2C[C@H](O)[C@@H](CO)O2)c(=O)n1
6. CCCCCCCCc1ccc(CCC(N)(CO)CO)cc1
7. COc1cc2c(N3CCN(C(=O)Nc4ccc(OC(C)C)cc4)CC3)ncnc2cc1OCCCN1CCCCC1

1. 0.336
2. 0.495
3. 0.626
4. 0.532
5. 0.474
6. 0.437
7. 0.419

---

Tested on: RIVA
Test: growth inhibition by drug alone (1 - RLU/untreated control) (fraction); higher = stronger inhibition
Details: 10 nM; time (day): 6; 177Lu-lilotomab satetraxetan 0 ug/ml
Give measured growth inhibition by drug alone for each item. Keep answers brief.
Answers are plain numbers.

Consider the worked cases shown below.
>  <Compound>
O=C(O)CCc1ccc(NCc2cccc(Oc3ccccc3)c2)cc1

>  <Quantity measured>
growth inhibition by drug alone

>  <Recorded measurement>
-0.37

$$$$
>  <Compound>
CCCC(=O)[O-].[Na+] [Sodium butyrate]

>  <Quantity measured>
growth inhibition by drug alone

>  <Recorded measurement>
-0.546

$$$$
>  <Compound>
CC[C@]1(O)C[C@H]2CN(CCc3c([nH]c4ccccc34)[C@@](C(=O)OC)(c3cc4c(cc3OC)N(C=O)[C@H]3[C@@](O)(C(=O)OC)[C@H](OC(C)=O)[C@]5(CC)C=CCN6CC[C@]43[C@@H]65)C2)C1

>  <Quantity measured>
growth inhibition by drug alone

>  <Recorded measurement>
0.971

$$$$

Report growth inhibition by drug alone for every entry below.
1. CCN1CCN(Cc2ccc(-c3cc4c(N[C@H](C)c5ccccc5)ncnc4[nH]3)cc2)CC1
2. Nc1cccc2c1C(=O)N(C1CCC(=O)NC1=O)C2=O (centres undefined) [Pomalidomide]
3. CC1(C)CCC(c2ccc(Cl)cc2)=C(CN2CCN(c3ccc(C(=O)NS(=O)(=O)c4ccc(N[C@H](CCN5CCOCC5)CSc5ccccc5)c(S(=O)(=O)C(F)(F)F)c4)cc3)CC2)C1
4. O=c1oc2c(O)c(O)cc3c(=O)oc4c(O)c(O)cc1c4c23
5. COc1cc2nccc(Oc3ccc(NC(=O)C4(C(=O)Nc5ccc(F)cc5)CC4)cc3)c2cc1OC [XL-184 free base (Cabozantinib)]
6. Cc1cnc(-c2cnc(NCCNc3ccc(C#N)cn3)nc2-c2ccc(Cl)cc2Cl)[nH]1

1: -0.452; 2: -0.254; 3: -0.0157; 4: -0.332; 5: -0.315; 6: -0.132

---

System: RIVA
Experiment: growth inhibition by drug plus 177Lu-lilotomab satetraxetan (1 - RLU/untreated control) (fraction); higher = stronger inhibition
Details: 10 nM; time (day): 3; 177Lu-lilotomab satetraxetan 0.5 ug/ml
Give measured growth inhibition by drug plus 177Lu-lilotomab satetraxetan for each item. Keep answers brief.
One number for each entry.

>  <Molecule>
CC1(CN2CCC(n3c(=O)[nH]c4ccccc43)CC2)OCc2ccccc2-n2cccc21 (stereo not drawn)

>  <Recorded measurement>
0.576

$$$$
>  <Molecule>
Cn1cc(C2=C(c3ccc(Cl)cc3Cl)C(=O)NC2=O)c2ccccc21

>  <Recorded measurement>
0.449

$$$$
>  <Molecule>
CCOC(=O)C1=C[C@]2(CC)CCCN3CCc4c(n1c1ccccc41)[C@@H]32 [Vinpocetine (Cavinton)]

>  <Recorded measurement>
0.457

$$$$
>  <Molecule>
Cc1cc(O)c2c(c1)C(=O)c1cccc(O)c1C2=O [Chrysophanic acid (Chrysophanol)]

>  <Recorded measurement>
0.425

$$$$
>  <Molecule>
CN(CCOc1ccc(CC2SC(=O)NC2=O)cc1)c1ccccn1 (stereo not drawn) [Rosiglitazone (Avandia)]

>  <Recorded measurement>
0.409

$$$$

Report growth inhibition by drug plus 177Lu-lilotomab satetraxetan for every entry below.
1. CS(=O)(=O)N1CCc2c(-c3cnc(N)nc3)nc(N3CCOCC3)nc21
2. O=C(/C=C/c1cccc(S(=O)(=O)Nc2ccccc2)c1)NO [Belinostat (PXD101)]

0.395
0.503

Report growth inhibition by drug plus 177Lu-lilotomab satetraxetan for every entry below.
1. N#Cc1ccc(C(c2ccc(C#N)cc2)n2cncn2)cc1 [Letrozole]
2. Cc1ccc(F)c(NC(=O)Nc2ccc(-c3cccc4[nH]nc(N)c34)cc2)c1 [Linifanib (ABT-869)]
3. O=C(Nc1cccnc1)N1CCC(Cc2cccc(Oc3ccc(C(F)(F)F)cn3)c2)CC1
4. COc1cc2ncnc(-n3nc(-c4ccccn4)nc3N)c2cc1OC
5. COc1ccc(CNC(=O)Nc2ncc([N+](=O)[O-])s2)cc1

0.418
0.454
0.71
0.485
0.496

Item CC(C)(C)c1ccc(S(=O)(=O)/C=C/C#N)cc1 : provide growth inhibition by drug plus 177Lu-lilotomab satetraxetan
0.438

These measurements were taken from the supplement of paper PMC6897291.
